Assay: Cytotoxicity (CC50) in HepDE19 cells, CCK-8 cell viability
Assay type: cell-based
Conditions: human, HepDE19 cells; read-out: CC50

| Item smiles | Op | CC50 at 5 days, µM |
| --- | --- | --- |
| COC(=O)C1=C(CN2CC(F)(F)C[C@H]2C(=O)O)NC(c2nccn2C)=N[C@H]1c1ccc(F)cc1Cl | = | 40 |
| CCOC(=O)C1=C(CN2CCOC[C@H]2C(=O)O)NC(c2nccs2)=N[C@H]1c1ccc(Cl)cc1F | = | 42 |
| COC(=O)C1=C(CN2CC(F)(F)C[C@H]2C(=O)O)NC(c2nccs2)=N[C@H]1c1ccc(F)cc1Cl | = | 85 |
| COC(=O)C1=C(CN2CCOC[C@H]2C(=O)O)NC(c2ncc(F)cc2F)=N[C@H]1c1ccc(F)cc1Cl | = | 27 |
| COC(=O)C1=C(CN2CC(F)(F)C[C@H]2C(=O)O)NC(c2nc(C(F)(F)F)cs2)=N[C@H]1c1ccc(F)cc1Cl | > | 100 |
| COC(=O)C1=C(CN2CCOC[C@H]2C(=O)O)NC(c2ncoc2C)=N[C@H]1c1cccc(F)c1Cl | > | 100 |
| CCOC(=O)C1=C(CN2CCOC[C@H]2C(=O)O)NC(c2nccs2)=N[C@H]1c1ccc(Cl)c(Cl)c1 | = | 36 |

###

Test: Metabolic stability study in human microsome
Assay type: in vitro ADME
Protocol: Human Microsomes were preincubated with test compound for 10 min at 37° C. in 100 mM phosphate buffer, pH 7.4. The reactions were initiated by adding NADPH or NADPH regenerating system to give a final incubation volume of 400 μL. […] Following precipitation and centrifugation, the amount of compound remaining in the samples were determined by LC-MS/MS. Controls of no NADPH or NADPH regenerating system at zero and 30 min were also prepared and analyzed.
Endpoint name: Human Hepatic Clearance (mL/min/kg)

| Molecule | Endpoint name | Val |
| --- | --- | --- |
| CCOC(=O)C1=C(CN2CCOC[C@H]2C(=O)O)NC(c2nccs2)=N[C@H]1c1cccc(F)c1Cl | Human Hepatic Clearance | 1.71 |
| CCOC(=O)C1=C(CN2CCOC[C@H]2C(=O)O)NC(c2nccs2)=N[C@H]1c1ccc(F)c(F)c1 | Human Hepatic Clearance | 5.56 |
| COC(=O)C1=C(CN2CC(F)(F)C[C@H]2C(=O)O)NC(c2nccs2)=NC1c1ccc(F)cc1Cl (some centres unmarked) | Human Hepatic Clearance | 7.51 |
| CCOC(=O)C1=C(CN2CC(F)(F)C[C@H]2C(=O)O)NC(c2nccs2)=NC1c1ccc(F)cc1Cl (some centres unmarked) | Human Hepatic Clearance | 10.02 |
| COC(=O)C1=C(CN2CCOC[C@H]2C(=O)O)NC(c2ncc(F)cc2F)=N[C@H]1c1ccc(F)cc1Cl | Human Hepatic Clearance | 6.28 |
| CCOC(=O)C1=C(CN2CC(F)(F)C[C@H]2C(=O)O)NC(c2nccs2)=N[C@H]1c1ccc(F)c(F)c1 | Human Hepatic Clearance | 6.83 |
| CCOC(=O)C1=C(CN2CCOC[C@H]2C(=O)O)NC(c2nccs2)=N[C@H]1c1cccc(F)c1 | Human Hepatic Clearance | 0 |
| COC(=O)C1=C(CN2CCSC(C)(C)[C@H]2C(=O)O)NC(c2nccs2)=N[C@H]1c1ccc(F)cc1Cl | Human Hepatic Clearance | 5.52 |
| CCOC(=O)C1=C(CN2CC(F)(F)C[C@H]2C(=O)O)NC(c2nccs2)=N[C@H]1c1cccc(F)c1Cl | Human Hepatic Clearance | 0 |
| COC(=O)C1=C(CN2CC(F)(F)C[C@H]2C(=O)O)NC(c2nccs2)=N[C@H]1c1ccc(F)cc1Br | Human Hepatic Clearance | 9.3 |
| CCOC(=O)C1=C(CN2CCOC[C@H]2C(=O)O)NC(c2nccs2)=N[C@H]1c1ccc(F)cc1 | Human Hepatic Clearance | 0 |
| COC(=O)C1=C(CN2CCOC[C@H]2C(=O)O)NC(c2nc(C)cn2C)=NC1c1ccc(F)cc1Cl (stereo in doubt) | Human Hepatic Clearance | 1.26 |
| CCOC(=O)C1=C(CN2CC(F)(F)C[C@H]2C(=O)O)NC(c2nccs2)=N[C@H]1c1ccc(F)cc1Cl | Human Hepatic Clearance | 7.46 |
| CCOC(=O)C1=C(CN2CCOC[C@H]2C(=O)O)NC(c2nccs2)=N[C@H]1c1ccc(F)c(F)c1C | Human Hepatic Clearance | 4.8 |
| CCOC(=O)C1=C(CN2CCOC[C@H]2C(=O)O)NC(c2nccn2C)=N[C@H]1c1cccc(F)c1Cl | Human Hepatic Clearance | 1.63 |
| CCOC(=O)C1=C(CN2CC(F)(F)CC[C@@H]2C(=O)O)NC(c2nccs2)=N[C@H]1c1ccc(F)cc1Br | Human Hepatic Clearance | 4.88 |
| COC(=O)C1=C(CN2CC(F)(F)C[C@H]2C(=O)O)NC(c2nccs2)=N[C@H]1c1ccc(Cl)cc1F | Human Hepatic Clearance | 1.72 |
| CCOC(=O)C1=C(CN2CCOC[C@H]2C(=O)O)NC(c2nccs2)=N[C@H]1c1ccc(F)c(F)c1Br | Human Hepatic Clearance | 0.26 |
| COC(=O)C1=C(CN2CCOC[C@H]2C(=O)O)NC(c2cc(C)ccn2)=N[C@H]1c1ccc(F)cc1Cl | Human Hepatic Clearance | 10.07 |
| COC(=O)C1=C(CN2CC(F)(F)C[C@H]2C(=O)O)NC(c2nc(C)cs2)=N[C@H]1c1ccc(F)cc1Cl | Human Hepatic Clearance | 6.35 |
| COC(=O)C1=C(CN2CC(F)(F)C[C@H]2C(=O)O)NC(c2nccs2)=N[C@H]1c1ccc(C#N)cc1Cl | Human Hepatic Clearance | 6.56 |
| COC(=O)C1=C(CN2CC(F)(F)C[C@H]2C(=O)O)NC(c2ncccc2C)=N[C@H]1c1ccc(F)cc1Cl | Human Hepatic Clearance | 3.19 |
| CCOC(=O)C1=C(CN2CC(F)(F)C[C@H]2C(=O)O)NC(c2nccn2C)=N[C@H]1c1ccc(F)c(F)c1 | Human Hepatic Clearance | 2.44 |
| CCOC(=O)C1=C(CN2CCOC[C@H]2C(=O)O)NC(c2nccn2C)=N[C@H]1c1ccc(F)c(F)c1 | Human Hepatic Clearance | 0 |
| CCOC(=O)C1=C(CN2CCOC[C@H]2C(=O)O)NC(c2nccs2)=N[C@H]1c1ccc(F)cc1Br | Human Hepatic Clearance | 1.58 |
| COC(=O)C1=C(CN2CCO[C@H](C)[C@H]2C(=O)O)NC(c2nccs2)=N[C@H]1c1ccc(F)cc1Cl | Human Hepatic Clearance | 5.42 |
| CCOC(=O)C1=C(CN2CCOC[C@H]2C(=O)O)NC(c2nccn2C)=N[C@H]1c1ccc(F)cc1Cl | Human Hepatic Clearance | 8.86 |
| COC(=O)C1=C(CN2CCO[C@H](C)[C@H]2C(=O)O)NC(c2nccs2)=N[C@H]1c1ccccc1Br | Human Hepatic Clearance | 0.85 |
| CCOC(=O)C1=C(CN2CC(F)(F)CC[C@H]2C(=O)O)NC(c2nccs2)=N[C@H]1c1ccc(F)cc1Br | Human Hepatic Clearance | 1.89 |

###

Assay: Cytotoxicity (CC50) in HepDE19 cells, CCK-8 cell viability
Assay type: cell-based
Conditions: human, HepDE19 cells; read-out: CC50

| Molecule | CC50 at 5 days |
| --- | --- |
| COC(=O)C1=C(CN2CCOC[C@H]2C(=O)O)NC(c2nc(SC)cs2)=N[C@H]1c1ccc(F)cc1Cl | 56 µM |
| CCOC(=O)C1=C(CN2CC(F)(F)CC[C@@H]2C(=O)O)NC(c2nccs2)=N[C@H]1c1ccc(F)cc1Br | 33 µM |
| COC(=O)C1=C(CN2CCOC[C@H]2C(=O)O)NC(c2nccs2)=N[C@H]1c1ccc(Cl)c(F)c1 | > 100 µM |
| CCOC(=O)C1=C(CN2CCOC[C@H]2C(=O)O)NC(c2nccn2C)=N[C@H]1c1cccc(F)c1Cl | 44 µM |
| COC(=O)C1=C(CN2CC(F)(F)C[C@H]2C(=O)O)NC(c2nccs2)=N[C@H]1c1ccc(Cl)cc1Cl | 66 µM |
| [2H]C1([2H])[C@@H](C(=O)O)N(CC2=C(C(=O)OC)[C@H](c3ccc(F)cc3Cl)N=C(c3nccs3)N2)CC1(F)F | 89 µM |
| CCOC(=O)C1=C(CN2CCOC[C@H]2C(=O)O)NC(c2nccs2)=N[C@H]1c1cccc(F)c1F | > 100 µM |
| CCOC(=O)C1=C(CN2CC(F)(F)C[C@H]2C(=O)O)NC(c2nccs2)=N[C@H]1c1cccc(F)c1Cl | 47 µM |
| COC(=O)C1=C(CN2CCOC[C@H]2C(=O)O)NC(c2nccs2)=N[C@H]1c1ccccc1Br | > 100 µM |
| [2H][C@@]1(c2ccc(F)cc2Cl)N=C(c2nccs2)NC(CN2CC(F)(F)C[C@H]2C(=O)O)=C1C(=O)OC | 97 µM |
| COC(=O)C1=C(CN2CCO[C@H](C)[C@H]2C(=O)O)NC(c2nccs2)=N[C@H]1c1ccc(F)cc1Br | > 100 µM |
| CCOC(=O)C1=C(CN2CCOC[C@H]2C(=O)O)NC(c2nccs2)=N[C@H]1c1ccccc1I | > 100 µM |
| COC(=O)C1=C(CN2CCOC[C@]2(C)C(=O)O)NC(c2nccs2)=N[C@H]1c1ccc(F)c(F)c1Cl (single isomer, unassigned) | 76 µM |
| COC(=O)C1=C(CN2CC(F)(F)C[C@H]2C(=O)O)NC(c2nccs2)=N[C@H]1c1ccc(F)c(F)c1Cl | 72 µM |
